Active and inactive are the calls of the source.
Notes on Kd obtained with ATP-dependent RNA helicase DDX42 (Homo sapiens, UniProt Q86XP3).
Sequence (Q86XP3 whole entry): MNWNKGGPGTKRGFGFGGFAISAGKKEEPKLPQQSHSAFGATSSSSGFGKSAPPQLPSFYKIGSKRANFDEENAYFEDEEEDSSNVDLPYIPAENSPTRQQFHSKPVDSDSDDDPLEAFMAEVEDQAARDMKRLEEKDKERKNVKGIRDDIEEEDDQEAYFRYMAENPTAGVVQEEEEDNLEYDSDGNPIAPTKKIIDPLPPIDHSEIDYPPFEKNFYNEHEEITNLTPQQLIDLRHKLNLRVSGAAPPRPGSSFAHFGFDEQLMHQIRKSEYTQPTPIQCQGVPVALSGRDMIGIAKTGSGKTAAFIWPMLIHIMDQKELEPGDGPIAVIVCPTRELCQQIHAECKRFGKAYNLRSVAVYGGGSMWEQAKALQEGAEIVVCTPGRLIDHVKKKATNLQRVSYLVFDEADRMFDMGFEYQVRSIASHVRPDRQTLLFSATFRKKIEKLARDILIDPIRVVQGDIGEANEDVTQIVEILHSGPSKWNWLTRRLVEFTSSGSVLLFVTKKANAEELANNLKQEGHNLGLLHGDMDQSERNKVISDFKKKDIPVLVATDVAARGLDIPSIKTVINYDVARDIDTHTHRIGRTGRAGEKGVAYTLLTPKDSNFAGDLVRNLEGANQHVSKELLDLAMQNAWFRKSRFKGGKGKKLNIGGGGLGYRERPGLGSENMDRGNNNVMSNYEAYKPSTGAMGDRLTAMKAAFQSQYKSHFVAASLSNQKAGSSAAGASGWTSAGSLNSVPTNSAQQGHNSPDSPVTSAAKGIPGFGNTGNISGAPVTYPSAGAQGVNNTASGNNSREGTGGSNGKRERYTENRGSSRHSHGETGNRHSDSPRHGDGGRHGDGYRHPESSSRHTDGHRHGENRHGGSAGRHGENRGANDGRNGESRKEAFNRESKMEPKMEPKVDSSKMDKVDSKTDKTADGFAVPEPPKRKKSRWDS

The following compounds have reported results that may help.
compound	Kd
O=c1sn(-c2cccc3ccccc23)c(=O)n1Cc1ccccc1 [TIDEGLUSIB]	> 30 µM (inactive)
CN1CC[C@@H](c2c(O)cc(O)c3c(=O)cc(-c4ccccc4Cl)oc23)[C@@H]1CO	0.002 µM
CCc1cnn2c(NCc3ccc[n+]([O-])c3)cc(N3CCCC[C@H]3CCO)nc12 [DINACICLIB]	> 30 µM (inactive)
N[C@@H]1CCCN(c2c(/C=C3\SC(=O)NC3=O)cccc2-c2ccccc2)C1	> 30 µM (inactive)
CNC(=O)c1ccc(C)c(-n2c(C)cc(OCc3ccc(F)cc3F)c(Br)c2=O)c1 [PH-797804]	> 30 µM (inactive)

Quick check: Kd of COc1ccc(-c2ccc3c(N4CCOC[C@@H]4C)nc(N4CCOC[C@@H]4C)nc3n2)cc1CO [AZD-8055] ? > 30 µM (inactive)
